All values here come from PubChem BioAssay (EPA / NIEHS).

# measurement-description: APR_HepG2_MitoMass_24hr: Apredica 24-hour HepG2 Assay for Mitochondrial Mass (AID 2282912)
# condition-context: high-content imaging, actives raise or lower the signal
The source made the active and inactive calls. The calls were made as follows: active = hit-call score of the fitted dose curve at least 0.9, where 1 is the maximum; inactive = score below 0.9.
Outcomes: active, inactive

compound	assigned-label
CC1=C(/C=C/C(C)=C/C=C/C(C)=C/C(=O)O)C(C)(C)CCC1	active
O=C(OCCOCCOC(=O)c1ccccc1)c1ccccc1	inactive
O=C(O)c1ccccc1C(c1ccc(O)cc1)c1ccc(O)cc1	inactive
OC1CCC(C2CCCCC2)CC1 (configuration not stated)	inactive
CCc1ccc(CCOc2ccc(CC3SC(=O)NC3=O)cc2)nc1 (configuration not stated)	inactive
CCCCCCCCOC(=O)CCCCCCCCC(=O)OCCCCCCCC	inactive
OC1CCCCC1	inactive
O=[N+]([O-])c1ccc(O)cc1	inactive
CCCCCCCCCCCCCCCS(=O)(=O)Oc1ccccc1	inactive
CCCCOCCO	inactive
CC(C)(C)c1ccc(O)c(C(C)(C)C)c1	inactive
CC(O)CO (configuration not stated)	inactive
